PROTOCOL DESCRIPTION: qHTS assay to identify small molecule agonists of the retinoic acid receptor (RAR) signaling pathway (AID 1159553)
TEST PARAMETERS: C3RL4 RARE luciferase reporter, agonist, 6 h
Records with an inconclusive call do not appear. Active and inactive are the calls of the source. The call rests on the fitted dose curve; in most records, active means well fitted activation curve with a large enough effect in the repeat runs; inconclusive means weak or mixed curves, or effect the other way; inactive means no such curve, though single readings can be large or run the other way.
The reply should name one outcome from YES (active), NO (inactive)

Observe how each entry below is paired with its result.
COMPOUND	CAT
CCN(CC)N=O	NO
CCCCC(CC)COC(=O)c1ccc(C(=O)OCC(CC)CCCC)c(C(=O)OCC(CC)CCCC)c1 (stereo not drawn)	NO
C=C(C)C(=O)OCC1CO1 (stereo not drawn)	NO
C1=Cc2cccc3cccc1c23	NO
Cc1cc(C)cc(C)c1	NO

Query string: Hey, what did the test say about O=C(Nc1ccc(Br)cc1)c1cc(Br)cc(Br)c1O ?
Result string: NO

Query string: Try this compound next: C[C@]12CCC(=O)C[C@@H]1CC[C@@H]1[C@@H]2CC[C@]2(C)[C@@H](O)CC[C@@H]12
Result string: NO

Query string: Try this compound next: CCC(=O)O[C@H]1CC[C@H]2[C@@H]3CCC4=CC(=O)CC[C@]4(C)[C@H]3CC[C@]12C
Result string: NO

Query string: Try this compound next: CC(O)CCO (stereo not drawn)
Result string: NO

Query string: Try this compound next: CCCCCCOC(=O)c1ccccc1C(=O)OCCCCCC
Result string: NO

Query string: Try this compound next: Cc1ccc(OP(=O)(Oc2ccc(C)cc2)Oc2ccc(C)cc2)cc1
Result string: NO

Query string: Try this compound next: COP(=S)(OC)Oc1cc(Cl)c(Cl)cc1Cl
Result string: NO

Query string: Try this compound next: COC(=O)c1sccc1S(=O)(=O)NC(=O)Nc1nc(C)nc(OC)n1
Result string: NO

Query string: Try this compound next: Cc1cc(Cl)ccc1OCCCC(=O)O
Result string: NO
